Source listed as paper PMC5540273.

system: MEK4; construct: gene MAP2K4; details: concentration: 1 μM,replicates: in singlicate; n = 1;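 further: KINOMEscan kinase panel screen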
%Inh listing for selected molecules.
ENDPOINT LABEL: %Inh (%)

> print(dat)
                                   molecule  target.entity  unit.info  measured.number
1  Cl.Cl.NC[C@H](CC1CCCCC1)NC(=O)c1ccc(-c2ccnc3[nH]ccc23)s1           MEK4          %               54
2  Cc1nnc(-c2ccc3occ(-c4ccc(S(C)=O)cc4)c3n2)o1 (stereo not shown)           MEK4          %                0
3  CC(=O)Nc1ccc(-c2cc3ncnc(SCC(=O)O)c3s2)cc1           MEK4          %               18
4  Cl.c1ccc(Oc2ccc(Nc3ccnc4cc(-c5ccc(CN6CCNCC6)o5)ccc34)cc2)nc1           MEK4          %               19
5  CCNCC(Cc1ccccc1)NC(=O)c1cc(Br)c(-c2ccnc3[nH]ccc23)s1.Cl.Cl (stereo not shown)           MEK4          %               57
6  CCn1c(-c2nonc2N)nc2cncc(CNC3CCNCC3)c21.Cl           MEK4          %               40
7    CS(=O)(=O)Nc1ccc(-c2ccnc3[nH]ccc23)cc1           MEK4          %               67
